Reported pIC50 values follow for various compounds
- assaySystem: V-ATPase (Homo sapiens)
- Construct: endogenous in cells; host or cells: primary CD4+ T cells (HIV ΔGPE infected) from donor PBMCs
- Sequence (P27449 whole entry, looked up): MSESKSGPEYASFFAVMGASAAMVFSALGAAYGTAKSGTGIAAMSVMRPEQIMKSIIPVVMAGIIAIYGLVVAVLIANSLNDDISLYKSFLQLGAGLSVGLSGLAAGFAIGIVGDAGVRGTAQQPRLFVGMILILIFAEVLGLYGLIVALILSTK
- test: Lysosomal acidification (Lysotracker mean fluorescence intensity) as indicator of V-ATPase activity in primary CD4+ T cells
- Type: cell-based
- Experimental: Inhibition of HIV-Nef was measured by assessing its capacity to downmodulate MHC-I HLA-A2 on the surface of primary CD4+ T cells 24-hours after treatment with each compound. V-ATPase inhibition was assessed at the same time point using lysosomal acidification as an indicator of V-ATPase activity. This was measured using a flow cytometric assay that quantified Lysotracker mean fluorescence intensity as previously described (Painter et al., 2020). […]
pIC50: −log10 of the molar value.
readout: pIC50

C/C=C/CC(=O)O[C@@H]1C[C@](O)([C@@H](C)[C@H](O)[C@H](C)[C@H]2OC(=O)/C(OC)=C/C(C)=C/[C@@H](C)[C@@H](O)[C@@H](C)C/C(C)=C/C=C/[C@@H]2OC)OC(C(C)C)[C@H]1C (stereo partly shown): 7.33
C=C/C=C/C(=O)O[C@@H]1C[C@](O)([C@@H](C)[C@H](O)[C@H](C)[C@H]2OC(=O)/C(OC)=C/C(C)=C/[C@@H](C)[C@@H](O)[C@@H](C)C/C(C)=C/C=C/[C@@H]2OC)O[C@H](C(C)C)[C@H]1C: 7.62
COC1=CC(C)=CC(C)C(O)C(C)CC(C)=CC=CC(OC)C(C(C)C(O)C(C)C2(O)CC(OC3OC(C)C(O)C(O)C3OC)C(C)C(C(C)C)O2)OC1=O (stereo not shown) [Compound S14, Leucanicidin, reference compound]: 8.60
C[C@@H]1C[C@H](C)C[C@H](C)[C@@H](O)CC(=O)O[C@H]([C@@H]2CCC[C@H]2C(=O)O)C/C=C/C=C(/C#N)[C@H](O)[C@@H](C)C1 [Compound S2, Borrelidin, reference compound]: 6.78
